The following compounds are listed with their measured normalized growth values.
Assay: chemical genetic growth profiling, strain panel (AID 1159580);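 note: tested at 20 µM; growth read once vehicle control cultures reached saturation at 30 °C; 1 = growth at the plate median or of vehicle wells; lower values mean less growth of the strain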
Conditions: S. cerevisiae deletion strains, growth OD, locus YJL115W, strain asf1, hits give low values
In all, about 5,500 compounds went through this assay and about 2,000 (36%) were called active. Inconclusive results (about 18%) are left out. The list shows a part of the results.
Write no unit; give the number alone.

Solved entries (count: 3):
O=C(O)c1ccccc1C(=O)Nc1ccc(S(=O)(=O)Nc2nccs2)cc1 | 0.973
O=C(O)CCCOc1ccc(Cl)cc1Cl | 0.922
NNCCc1ccccc1 | 1.01

In the following, a different compound is considered.
In plain terms, CN(C)CCOC(=O)COc1ccc(Cl)cc1 has a documented normalized growth of 0.947
